Cited source for all entries: the supplement of paper PMC8728848

target: Fuc(a1-2)[GalNAc(a1-3)]Gal(b1-4)GlcNAc; assay: glycan array binding signal (z-score within array); higher = stronger binding; settings: glycan notation: IUPAC condensed, linker removed
The full list was thinned out, with the strongest signals kept by preference.
MEASUREMENT KIND: glycan array binding signal (z-score)
One number for each entry.

Give the measured glycan array binding signal (z-score) of AcfC (Vibrio cholerae), Q57410 (protein) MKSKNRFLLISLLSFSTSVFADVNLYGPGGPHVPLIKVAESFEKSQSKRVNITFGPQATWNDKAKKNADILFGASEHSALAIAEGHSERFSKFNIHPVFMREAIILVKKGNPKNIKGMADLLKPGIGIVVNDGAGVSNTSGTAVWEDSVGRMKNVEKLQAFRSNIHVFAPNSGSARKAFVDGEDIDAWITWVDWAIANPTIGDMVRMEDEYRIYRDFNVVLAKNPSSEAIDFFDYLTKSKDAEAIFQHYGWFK .
-0.063

I have 2 binders here; please give me glycan array binding signal (z-score) for each one.
1. CBM40 CPF071 (Clostridium perfringens) (protein) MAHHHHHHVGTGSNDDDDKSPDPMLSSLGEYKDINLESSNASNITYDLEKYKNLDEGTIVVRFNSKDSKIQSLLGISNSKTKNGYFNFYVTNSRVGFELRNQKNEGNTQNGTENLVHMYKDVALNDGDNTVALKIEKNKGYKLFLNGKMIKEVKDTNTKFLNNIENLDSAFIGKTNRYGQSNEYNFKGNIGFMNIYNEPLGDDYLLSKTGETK
2. PA-IL (Pseudomonas aeruginosa) (protein) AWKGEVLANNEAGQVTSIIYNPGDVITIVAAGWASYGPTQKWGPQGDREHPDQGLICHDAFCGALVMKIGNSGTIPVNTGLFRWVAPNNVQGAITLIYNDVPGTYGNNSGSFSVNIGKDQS

1. -0.116
2. 0.174
